Attribution: the kinase profiling compilation of Christmann-Franck et al. (2016)

Biological target: ULK1 (human)
Assay: KINOMEscan competition binding
Conditions: compound 10.0 µM
Item-by-item account of kinase still bound, per cent of control
All answers are understood in %, so give the number only.

>>> print(df.to_string())
                                   compound  measurement_unit  endpoint_result
0  C=CC(=O)Nc1ccc(C(=O)c2sc(Nc3ccc(N4CCN(C)CC4)cc3OC)nc2N)cc1                 %              5.1
1  O=c1[nH]c2ccccc2n1C1CCN(Cc2ccc(-c3nc4cc5[nH]cnc5cc4nc3-c3ccccc3)cc2)CC1                 %               78
2         COc1cc2ncnc(Nc3cccc(Cl)c3)c2cc1OC                 %               75
3  CNC(=O)Nc1ccc(-c2nc(N3CC4CCC(C3)O4)c3cnn(C4CCC5(CC4)OCCO5)c3n2)cc1                 %              100
4  CCOc1cc(N2CCC(O)CC2)ccc1Nc1ncc2c(n1)N(C)c1ccccc1C(=O)N2C                 %              100

# input // lookup kinase still bound, per cent of control for COc1cc(C)c(Sc2cnc(NC(=O)c3ccc(CNC(C)C(C)C)cc3)s2)cc1C(=O)N1CCN(C(C)=O)CC1 (stereo not drawn)
# output 25

# input Quick one: "COc1cc2c(Nc3ccc(NC(=O)c4ccccc4)cc3)ncnc2cc1OCCCN1CCOCC1"
# output 48

# input Quick one: "N#Cc1cc(-c2ccnc(Nc3ccc(-n4cnc(-c5cccnc5)n4)cc3)n2)cc(N2CCOCC2)c1"
# output 37

====

Molecular target: MST4 (human) (UniProt Q9P289)
Sequence (Q9P289 whole entry, looked up): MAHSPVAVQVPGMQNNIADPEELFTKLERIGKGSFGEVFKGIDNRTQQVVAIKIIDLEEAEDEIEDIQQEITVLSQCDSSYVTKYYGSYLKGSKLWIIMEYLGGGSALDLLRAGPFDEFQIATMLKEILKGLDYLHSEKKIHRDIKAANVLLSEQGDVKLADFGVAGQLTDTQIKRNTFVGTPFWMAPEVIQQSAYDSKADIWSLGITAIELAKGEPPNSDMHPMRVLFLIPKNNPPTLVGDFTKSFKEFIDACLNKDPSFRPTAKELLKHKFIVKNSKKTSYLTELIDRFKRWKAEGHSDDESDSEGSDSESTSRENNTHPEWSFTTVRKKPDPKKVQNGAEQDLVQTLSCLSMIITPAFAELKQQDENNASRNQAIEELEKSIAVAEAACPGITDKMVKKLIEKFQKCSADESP
Assay: KINOMEscan competition binding
Settings: compound 10.0 µM
recorded.metric: kinase still bound, per cent of control (%)
All answers are understood in %, so give the number only.

>>> df
                               given_smiles                          recorded_metric  endpoint_result
0  CCc1nc(-c2cccc(C)c2)c(-c2ccnc(NC(=O)c3ccccc3)c2)s1  kinase still bound, per cent of control              100
1  O=c1[nH]c2ccccc2n1C1CCN(Cc2ccc(-c3nc4cc5[nH]cnc5cc4nc3-c3ccccc3)cc2)CC1  kinase still bound, per cent of control              100

# input // lookup kinase still bound, per cent of control for "C=CC(=O)Nc1ccc(C(=O)c2sc(Nc3ccc(N4CCN(C)CC4)cc3OC)nc2N)cc1"
# output 99

# input Quick one: "COc1ccc(N(C(=O)Oc2cc(C(=O)Nc3cccc(C(F)(F)F)c3)ccc2C)c2ccnc(Nc3ccc(N4CCN(C)CC4)cc3)n2)c(OC)c1"
# output 100

# input Quick one: "CC(=O)c1c(C)c2cnc(Nc3ccc(N4CCNCC4)cn3)nc2n(C2CCCC2)c1=O"
# output 26

# input Quick one: "CCOc1cc(N2CCC(O)CC2)ccc1Nc1ncc2c(n1)N(C)c1ccccc1C(=O)N2C"
# output 100

# input Quick one: "CCN1CCN(Cc2ccc(NC(=O)c3ccc(C)c(/C=C/c4cnc5[nH]ccc5c4OC)c3)cc2C(F)(F)F)CC1"
# output 18

# input Quick one: "COc1cc2ncnc(Nc3cccc(Cl)c3)c2cc1OC"
# output 84

# input Quick one: "COc1cc(N2CCC(C(N)=O)CC2)ccc1Nc1nc(N)c(Cl)c(Nc2ccccc2S(=O)(=O)C(C)C)n1"
# output 100
